Each recorded value in this set is attributed to the supplement of paper PMC6555819.

Test system: RARg homodimer (NR concentration 270 nM)
Experiment: PBM binding z-score (relative to random genomic background probes); higher = stronger binding; sequences stand for … in GC…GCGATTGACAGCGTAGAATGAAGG
// label = t if PBM binding z-score is not less than 2, otherwise f

Q: Could you verify whether the entry ACTAGGAGGCCAAGGGTCACTCAAGATTAGTCCG shows PBM binding z-score of no less than 2?
Result: t

New cases:
Q: Could you verify whether the entry CCGAGTAGATTATGGGGCATTCAGGCAACGGTGA shows PBM binding z-score of no less than 2?
Result: f

Q: Could you verify whether the entry CTCGAAAGGTCGTGCTCAGGTAAGTATACCAAAC shows PBM binding z-score of no less than 2?
Result: t

Q: Could you verify whether the entry GCGACTGGAGCATCAGCAGGTTACCATAACTTAA shows PBM binding z-score of no less than 2?
Result: f

Q: Could you verify whether the entry CCTACTGGGCTAAAGGTCATTGATTCCAATGCTC shows PBM binding z-score of no less than 2?
Result: t
